biological target: Human Leukocyte Elastase (Homo sapiens, UniProt P08246); construct: purchased Elasten Products Co., Pacific, Mo; host or cells: human sputum; test: Elastase inhibition in vitro, MeO-Suc-Ala-Ala-Pro-Val-pNA hydrolysis (human sputum elastase); type: biochemical; conditions: Table I, in vitro inhibition; 0.5 mM substrate, pH 7.5; read-out: In Vitro IC50
Sequence (P08246 30-247 limits assumed): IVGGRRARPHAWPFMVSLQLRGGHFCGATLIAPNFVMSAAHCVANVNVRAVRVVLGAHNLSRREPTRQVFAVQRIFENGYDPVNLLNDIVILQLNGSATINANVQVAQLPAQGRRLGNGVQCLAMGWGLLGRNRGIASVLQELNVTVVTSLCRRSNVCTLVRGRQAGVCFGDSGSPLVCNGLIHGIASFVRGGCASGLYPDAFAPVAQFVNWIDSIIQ
Where a SMILES comes first, the peptide text is derived from it. [ ]: non-standard residue; d: D form. The star is where a group is joined. ξ: configuration not given here. ξTic = O=C(O)C1Cc2ccccc2CN1; Cbz = O=C(OCc1ccccc1)*; ξV = CC(C)C(N)C(=O)O; CF3 = FC(F)(F)*
MEASURE_NAME: IC50

Recorded result, CC(C)C(NC(=O)C1Cc2ccccc2CN1C(=O)[C@@H](NC(=O)OCc1ccccc1)C(C)C)C(=O)C(F)(F)F (stereo partly drawn) [CBZ] (Cbz-Val-[ξTic]-[ξV]-CF3) , IC50: < 17.8 µM
